Values from patent US6645529B2

- Assay Overview: dissolving times of different carrier materials
- Type: physicochemical
- Protocol Conditions: 10 g in 100 ml water of 17° C., stirred at 500 rpm, visual
- Method: Testing conditions: 10 g of each carrier material was added to 100 ml water of 17° C. in a 400 ml beaker and stirred at 500 rpm by a magnetic stirrer. Dissolution was determined visually.
The following molecules are listed with their measured Dissolving time values.
Measured Metric: Dissolving time (s)

In [3]: df
Out[3]:
                                   molecule  measured_metric  experimental_result
0  O.O.O=C([O-])CC(O)(CC(=O)[O-])C(=O)[O-].[Na+].[Na+].[Na+] [trisodiumcitrate.2H2O]  Dissolving time                   85
1  OC[C@@H](O)[C@@H](O)[C@H](O)[C@@H](O)CO [sorbitol (spray dried), sorbitol]  Dissolving time                   50
2  OC[C@H]1O[C@@H](O[C@H]2[C@H](O)[C@@H](O)C(O)O[C@@H]2CO)[C@H](O)[C@@H](O)[C@H]1O (stereo partly shown) [lactose]  Dissolving time                  120
3  OC[C@@H](O)[C@@H](O)[C@H](O)[C@H](O)CO [mannitol (spray dried), mannitol]  Dissolving time                   55
4  OC[C@@H](O)[C@@H](O[C@H]1O[C@H](CO)[C@@H](O)[C@H](O)[C@H]1O)[C@H](O)[C@@H](O)CO [hydrogenated maltose]  Dissolving time                  200
5  OC[C@@H](O)[C@@H](O)[C@H](O)[C@@H](O)CO [sorbitol]  Dissolving time                   90
6  OC[C@H]1O[C@@](CO)(O[C@H]2O[C@H](CO)[C@@H](O)[C@H](O)[C@H]2O)[C@@H](O)[C@@H]1O [instant sugar]  Dissolving time                   15

====

- Assay Overview: bulk density
- Type: physicochemical
- Protocol Conditions: Table 1, preferred carrier materials
Measured bulk density (g/100 ml) values are reported for all entries that follow.
Measured Metric: bulk density (g/100 ml)

                                   compound  experimental_result
0  OC[C@H]1O[C@@](CO)(O[C@H]2O[C@H](CO)[C@@H](O)[C@H](O)[C@H]2O)[C@@H](O)[C@@H]1O [saccharose (coarse grain), saccharose]                   88
1  OC[C@H]1O[C@@](CO)(O[C@H]2O[C@H](CO)[C@@H](O)[C@H](O)[C@H]2O)[C@@H](O)[C@@H]1O [saccharose (fine grain), saccharose]                   81
2  OC[C@@H](O)[C@@H](O)[C@H](O)[C@H](O)CO [mannitol (spray dried), mannitol]                   45
3  OC[C@@H](O)[C@@H](O)[C@H](O)[C@H](O)CO [mannitol]                   63
4  OC[C@@H](O)[C@@H](O[C@H]1O[C@H](CO)[C@@H](O)[C@H](O)[C@H]1O)[C@H](O)[C@@H](O)CO [hydrogenated maltose]                   90
5  OC[C@@H](O)[C@@H](O)[C@H](O)[C@@H](O)CO [sorbitol (spray dried), sorbitol]                   45
6  OC[C@@H](O)[C@@H](O)[C@H](O)[C@@H](O)CO [sorbitol]                   58
